assay comment: activity coefficient (dimensionless); of the first substance listed, at infinite dilution; xn = mol fraction of the nth substance listed
experimental conditions: 323.15 K; Liquid; Chromatography; x1 = 0
Could you please mark Y for values of activity coefficient below 2 and N for values at or above it?

                                   compound  category
0  C1CCCCC1 [cyclohexane] + CCCCCCCCn1cc[n+](C)c1.O=[N+]([O-])[O-]         N
1  CC#N [acetonitrile] + CCCCCCCCn1cc[n+](C)c1.O=[N+]([O-])[O-]         Y
2  Cc1ccccc1C [1,2-dimethylbenzene] + CCCCCCCCn1cc[n+](C)c1.O=[N+]([O-])[O-]         Y
3  CO [methanol] + CCCCCCCCn1cc[n+](C)c1.O=[N+]([O-])[O-]         Y
4  CCCCC [pentane] + CCCCCCCCn1cc[n+](C)c1.O=[N+]([O-])[O-]         N
5  CCCCCCC [heptane] + CCCCCCCCn1cc[n+](C)c1.O=[N+]([O-])[O-]         N
6  c1ccccc1 [benzene] + CCCCCCCCn1cc[n+](C)c1.O=[N+]([O-])[O-]         Y
7  CC(C)O [propan-2-ol] + CCCCCCCCn1cc[n+](C)c1.O=[N+]([O-])[O-]         Y

###

assay comment: activity coefficient (dimensionless); of the first substance listed, at infinite dilution; xn = mol fraction of the nth substance listed
experimental conditions: 333.15 K; Liquid; Chromatography; x1 = 0
# binarize activity coefficient: threshold 2 inclusive, high side yes (1), low side no (0)

>>> df
                                   compound  category
0  c1ccccc1 [benzene] + CCCCCCCCn1cc[n+](C)c1.O=[N+]([O-])[O-]    no (0)
1  ClC(Cl)Cl [trichloromethane] + CCCCCCCCn1cc[n+](C)c1.O=[N+]([O-])[O-]    no (0)
2  CCCCC [pentane] + CCCCCCCCn1cc[n+](C)c1.O=[N+]([O-])[O-]   yes (1)
3  ClCCl [dichloromethane] + CCCCCCCCn1cc[n+](C)c1.O=[N+]([O-])[O-]    no (0)
4  CCCCCCCC [octane] + CCCCCCCCn1cc[n+](C)c1.O=[N+]([O-])[O-]   yes (1)
5  Cc1ccccc1C [1,2-dimethylbenzene] + CCCCCCCCn1cc[n+](C)c1.O=[N+]([O-])[O-]    no (0)

###

assay comment: activity coefficient (dimensionless); of the first substance listed, at infinite dilution; xn = mol fraction of the nth substance listed
experimental conditions: 313.15 K; Liquid; Chromatography; x1 = 0
The following compounds are listed with their measured activity coefficient values.
measure: activity coefficient

>>> print(df.to_string())
                                    compound  recorded_result
 0  C1CCOC1 [tetrahydrofuran] + CCCCCCCCn1cc[n+](C)c1.O=[N+]([O-])[O-]             1.02
 1  ClC(Cl)Cl [trichloromethane] + CCCCCCCCn1cc[n+](C)c1.O=[N+]([O-])[O-]             0.18
 2  CCCO [propan-1-ol] + CCCCCCCCn1cc[n+](C)c1.O=[N+]([O-])[O-]             0.41
 3  C1CCCCC1 [cyclohexane] + CCCCCCCCn1cc[n+](C)c1.O=[N+]([O-])[O-]             6.27
 4  CC(C)CC(C)(C)C [2,2,4-trimethylpentane] + CCCCCCCCn1cc[n+](C)c1.O=[N+]([O-])[O-]             16.8
 5  CCCCC [pentane] + CCCCCCCCn1cc[n+](C)c1.O=[N+]([O-])[O-]              7.8
 6  Cc1ccccc1 [toluene] + CCCCCCCCn1cc[n+](C)c1.O=[N+]([O-])[O-]             1.41
 7  Cc1cccc(C)c1 [1,3-dimethylbenzene] + CCCCCCCCn1cc[n+](C)c1.O=[N+]([O-])[O-]             2.03
 8  CC#N [acetonitrile] + CCCCCCCCn1cc[n+](C)c1.O=[N+]([O-])[O-]             0.59
 9  Cc1ccccc1C [1,2-dimethylbenzene] + CCCCCCCCn1cc[n+](C)c1.O=[N+]([O-])[O-]             1.77
10  CCCCCC [hexane] + CCCCCCCCn1cc[n+](C)c1.O=[N+]([O-])[O-]             11.2
11  Cc1ccc(C)cc1 [1,4-dimethylbenzene] + CCCCCCCCn1cc[n+](C)c1.O=[N+]([O-])[O-]             1.99
12  CC(C)O [propan-2-ol] + CCCCCCCCn1cc[n+](C)c1.O=[N+]([O-])[O-]             0.43
13  CCO [ethanol] + CCCCCCCCn1cc[n+](C)c1.O=[N+]([O-])[O-]             0.37
14  CCCCCCC [heptane] + CCCCCCCCn1cc[n+](C)c1.O=[N+]([O-])[O-]             14.3
15  ClCCl [dichloromethane] + CCCCCCCCn1cc[n+](C)c1.O=[N+]([O-])[O-]             0.33
16  CC1CCCCC1 [methylcyclohexane] + CCCCCCCCn1cc[n+](C)c1.O=[N+]([O-])[O-]              7.7
17  CCCCCCCC [octane] + CCCCCCCCn1cc[n+](C)c1.O=[N+]([O-])[O-]               17
18  ClC(Cl)(Cl)Cl [tetrachloromethane] + CCCCCCCCn1cc[n+](C)c1.O=[N+]([O-])[O-]              1.2
19  CCOC(C)=O [ethyl acetate] + CCCCCCCCn1cc[n+](C)c1.O=[N+]([O-])[O-]             1.64
20  CC(C)=O [acetone] + CCCCCCCCn1cc[n+](C)c1.O=[N+]([O-])[O-]             0.83
21  c1ccccc1 [benzene] + CCCCCCCCn1cc[n+](C)c1.O=[N+]([O-])[O-]             0.96
22  CCCCCCCCC [nonane] + CCCCCCCCn1cc[n+](C)c1.O=[N+]([O-])[O-]             21.8
23  CO [methanol] + CCCCCCCCn1cc[n+](C)c1.O=[N+]([O-])[O-]             0.26

###

assay comment: activity coefficient (dimensionless); of the first substance listed, at infinite dilution; xn = mol fraction of the nth substance listed
experimental conditions: 303.15 K; Liquid; Chromatography; x1 = 0
The following compounds are listed with their measured activity coefficient values.
measure: activity coefficient

>>> df
                                   compound               measure  recorded_result
0  CC(C)O [propan-2-ol] + CCCCCCCCn1cc[n+](C)c1.O=[N+]([O-])[O-]  activity coefficient             0.44
1  C1CCOC1 [tetrahydrofuran] + CCCCCCCCn1cc[n+](C)c1.O=[N+]([O-])[O-]  activity coefficient             1.03
2  CCCCC [pentane] + CCCCCCCCn1cc[n+](C)c1.O=[N+]([O-])[O-]  activity coefficient              8.5
3  CCCCCC [hexane] + CCCCCCCCn1cc[n+](C)c1.O=[N+]([O-])[O-]  activity coefficient             12.1
4  ClCCl [dichloromethane] + CCCCCCCCn1cc[n+](C)c1.O=[N+]([O-])[O-]  activity coefficient             0.32
5  CC(C)=O [acetone] + CCCCCCCCn1cc[n+](C)c1.O=[N+]([O-])[O-]  activity coefficient             0.84
6  Cc1ccccc1C [1,2-dimethylbenzene] + CCCCCCCCn1cc[n+](C)c1.O=[N+]([O-])[O-]  activity coefficient             1.75

###

assay comment: activity coefficient (dimensionless); of the first substance listed, at infinite dilution; xn = mol fraction of the nth substance listed
experimental conditions: 353.15 K; Liquid; Chromatography; x1 = 0
Could you please mark Yes for values of activity coefficient below 0.4 and No for values at or above it?

In [3]: df
Out[3]:
                                    compound  category
 0  ClC(Cl)(Cl)Cl [tetrachloromethane] + CCCCCCCCn1cc[n+](C)c1.O=[N+]([O-])[O-]        No
 1  CC1CCCCC1 [methylcyclohexane] + CCCCCCCCn1cc[n+](C)c1.O=[N+]([O-])[O-]        No
 2  CCOC(C)=O [ethyl acetate] + CCCCCCCCn1cc[n+](C)c1.O=[N+]([O-])[O-]        No
 3  CCCO [propan-1-ol] + CCCCCCCCn1cc[n+](C)c1.O=[N+]([O-])[O-]       Yes
 4  CO [methanol] + CCCCCCCCn1cc[n+](C)c1.O=[N+]([O-])[O-]       Yes
 5  Cc1ccccc1 [toluene] + CCCCCCCCn1cc[n+](C)c1.O=[N+]([O-])[O-]        No
 6  ClCCl [dichloromethane] + CCCCCCCCn1cc[n+](C)c1.O=[N+]([O-])[O-]       Yes
 7  CCCCCCCCC [nonane] + CCCCCCCCn1cc[n+](C)c1.O=[N+]([O-])[O-]        No
 8  C1CCOC1 [tetrahydrofuran] + CCCCCCCCn1cc[n+](C)c1.O=[N+]([O-])[O-]        No
 9  Cc1ccc(C)cc1 [1,4-dimethylbenzene] + CCCCCCCCn1cc[n+](C)c1.O=[N+]([O-])[O-]        No
10  CCO [ethanol] + CCCCCCCCn1cc[n+](C)c1.O=[N+]([O-])[O-]       Yes
11  ClC(Cl)Cl [trichloromethane] + CCCCCCCCn1cc[n+](C)c1.O=[N+]([O-])[O-]       Yes
12  CCCCCCC [heptane] + CCCCCCCCn1cc[n+](C)c1.O=[N+]([O-])[O-]        No
13  CCCCCC [hexane] + CCCCCCCCn1cc[n+](C)c1.O=[N+]([O-])[O-]        No
14  CC(C)=O [acetone] + CCCCCCCCn1cc[n+](C)c1.O=[N+]([O-])[O-]        No
15  Cc1cccc(C)c1 [1,3-dimethylbenzene] + CCCCCCCCn1cc[n+](C)c1.O=[N+]([O-])[O-]        No
